All values here come from patent US6310217A.

- target desc: cytosolic PLA2 (Bos taurus)
- Construct: endogenous in cells
- Sequence (A4IFJ5 whole entry): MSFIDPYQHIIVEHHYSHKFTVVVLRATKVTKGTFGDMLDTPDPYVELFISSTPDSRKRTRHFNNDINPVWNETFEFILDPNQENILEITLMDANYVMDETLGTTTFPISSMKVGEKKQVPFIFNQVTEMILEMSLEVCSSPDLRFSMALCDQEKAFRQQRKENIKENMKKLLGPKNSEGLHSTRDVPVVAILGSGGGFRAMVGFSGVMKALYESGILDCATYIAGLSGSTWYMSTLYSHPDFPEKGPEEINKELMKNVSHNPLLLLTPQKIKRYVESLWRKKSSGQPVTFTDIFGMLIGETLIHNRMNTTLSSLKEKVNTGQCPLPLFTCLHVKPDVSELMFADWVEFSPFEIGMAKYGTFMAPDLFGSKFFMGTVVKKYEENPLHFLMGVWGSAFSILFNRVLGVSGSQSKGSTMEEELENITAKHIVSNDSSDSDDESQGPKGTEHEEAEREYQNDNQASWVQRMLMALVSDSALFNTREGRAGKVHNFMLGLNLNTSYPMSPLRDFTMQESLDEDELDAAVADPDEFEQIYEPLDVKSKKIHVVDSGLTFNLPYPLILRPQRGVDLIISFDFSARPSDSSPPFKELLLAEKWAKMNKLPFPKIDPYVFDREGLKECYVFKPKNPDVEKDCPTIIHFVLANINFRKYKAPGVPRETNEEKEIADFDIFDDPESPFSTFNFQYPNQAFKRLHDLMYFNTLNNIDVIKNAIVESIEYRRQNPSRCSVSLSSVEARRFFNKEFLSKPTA
- test details: Inhibition of cytosolic phospholipase A2 in intact bovine platelets stimulated with calcium ionophore A23187; released arachidonic acid determined by reversed phase HPLC with UV detection
- experimental setup: A23187 stimulation, 5,8,11,14-eicosatetraynoic acid added, test substances normally dissolved in DMSO
Measured IC50 by item
Quick note: give the figure in nM, leave out the unit.

Worked cases, answers included:
CCCCCCCCCCCC(=O)c1c(C)c(CC(=O)O)n(Cc2cccc(CCC(=O)O)c2)c1C 3000
CCCCCCCCCCCC(=O)c1c(C)c(CC(=O)O)n(Cc2cccc(/C=C/C(=O)O)c2)c1C 4600
CCCCCCCCCCCC(=O)c1c(C(=O)O)n(CCOc2ccc(CC(=O)O)cc2)c2ccccc12 1600

--- query ---
Problem: Name the reported IC50 value associated with the compound `CCCCCCCCCCCC(=O)c1c(C(=O)O)n(CCOc2cccc(CC(=O)O)c2)c2ccccc12`
Solution: 1600
